Parameter Emax: see the listing below.
Molecular target: UniProtKB Q96EB6
Assay: Trp mass spectrometry assay of SIRT1 activity
Type: biochemical
Conditions: Trp assay; percent maximum fold activation; read-out: Trp % Fold Act

- Compound: "Cc1ccc(NC(=O)c2c(C)nc3ccc(-c4ccccc4Cl)nn23)nn1"
  Emax: "< 350%"
- Compound: "O=C(Nc1ccccn1)c1cnc2ccc(N3CCCC3C(F)(F)F)nn12 (stereo not drawn)"
  Emax: "≥ 350%"
- Compound: "O=C(Nc1ccncn1)c1cnc2ccc(-c3ccccc3OC[C@H](O)CO)nn12"
  Emax: "< 350%"
- Compound: "O=C(Nc1cnccn1)c1cnn2ccc(-c3ccccc3C(F)(F)F)nc12"
  Emax: "< 350%"
- Compound: "Cc1cc(NC(=O)c2c(C)nc3c(OC[C@H](O)CO)cc(-c4ccccc4C(F)(F)F)nn23)nc(C)n1"
  Emax: "≥ 350%"
- Compound: "O=C(Nc1cnn2ccc(-c3ccccc3OC(F)(F)F)nc12)c1nc(C(F)(F)F)cs1"
  Emax: "< 350%"
- Compound: "Cc1cncc(NC(=O)c2cnc3ccc(N4CC[C@H](F)C4)nn23)c1"
  Emax: "< 350%"
- Compound: "COc1nccc(NC(=O)c2cnc3ccc(N4CC[C@H](F)C4)nn23)n1"
  Emax: "< 350%"
- Compound: "Cc1cncc(C(=O)Nc2cnc3ccc(-c4ccccc4C(F)(F)F)nn23)c1"
  Emax: "< 350%"
- Compound: "CN(C)[C@H]1CCN(c2ccc3ncc(C(=O)Nc4cccnn4)n3n2)C1"
  Emax: "< 350%"
- Compound: "Cc1cc(NC(=O)c2cnc3ccc(N4CC[C@H](F)C4)nn23)nc(C)n1"
  Emax: "< 350%"
- Compound: "O=C(Nc1ccccn1)c1cnc2ccc(N3CCC[C@H](F)C3)nn12"
  Emax: "≥ 350%"
- Compound: "CC1(C)CCN(c2ccc3ncc(C(=O)Nc4cccnn4)n3n2)C1"
  Emax: "≥ 350%"
- Compound: "O=C(Nc1ccc(F)cn1)c1cnc2ccc(N3CC[C@H](F)C3)nn12"
  Emax: "< 350%"
- Compound: "O=C(Nc1cnn2ccc(-c3ccccc3C(F)(F)F)nc12)c1nc(C(F)(F)F)cs1"
  Emax: "< 350%"
- Compound: "O=C(Nc1cccnc1N1CCOCC1)c1cnc2ccc(-c3ccccc3C(F)(F)F)nn12"
  Emax: "< 350%"
- Compound: "O=C(Nc1ccncc1F)c1cnc2ccc(N3CCC(F)(F)CC3)nn12"
  Emax: "< 350%"
- Compound: "Cc1cnc(NC(=O)c2c(C)nc3ccc(-c4cccc(OC[C@H](O)CO)c4)nn23)s1"
  Emax: "< 350%"

----------
Target: SIRT1 (Homo sapiens)
Sequence (Q96EB6 whole entry): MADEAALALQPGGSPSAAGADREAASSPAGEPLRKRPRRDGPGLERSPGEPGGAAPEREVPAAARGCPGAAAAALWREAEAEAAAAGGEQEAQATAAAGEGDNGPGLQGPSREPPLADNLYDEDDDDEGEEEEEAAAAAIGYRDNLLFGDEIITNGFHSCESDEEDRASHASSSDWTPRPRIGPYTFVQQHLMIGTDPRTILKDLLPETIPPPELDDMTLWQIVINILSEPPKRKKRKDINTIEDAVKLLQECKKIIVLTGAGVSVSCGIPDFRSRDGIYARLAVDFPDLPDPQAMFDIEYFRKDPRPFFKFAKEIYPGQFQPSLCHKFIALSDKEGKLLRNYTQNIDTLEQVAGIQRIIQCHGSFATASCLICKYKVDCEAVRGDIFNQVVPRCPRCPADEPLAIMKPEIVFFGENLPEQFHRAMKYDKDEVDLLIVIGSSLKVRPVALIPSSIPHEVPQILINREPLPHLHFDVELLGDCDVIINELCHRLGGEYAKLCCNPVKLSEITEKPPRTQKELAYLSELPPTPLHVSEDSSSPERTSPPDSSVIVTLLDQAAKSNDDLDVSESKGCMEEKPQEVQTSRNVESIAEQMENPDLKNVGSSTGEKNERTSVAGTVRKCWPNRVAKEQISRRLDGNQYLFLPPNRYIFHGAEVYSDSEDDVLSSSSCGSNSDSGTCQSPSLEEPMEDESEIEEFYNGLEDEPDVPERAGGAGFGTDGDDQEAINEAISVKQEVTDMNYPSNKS
Assay: TAMRA based mass spectrometry assay of SIRT1 activity
Type: biochemical
Conditions: TAMRA assay; percent maximum fold activation; read-out: TAMRA % Fold Act
Parameter Emax: see the listing below.

- Compound: "Cc1cc(C)nc(NC(=O)c2c(O)nc3ccc(-c4ccccc4C(F)(F)F)nn23)c1 [Compound 365]"
  Emax: "< 350%"
- Compound: "Cc1cc(NC(=O)c2c(C)nn3ccc(-c4ccccc4C(F)(F)F)nc23)nc(C)n1 [Compound 787]"
  Emax: "≥ 350%"
- Compound: "Cc1nc2ccc(-c3ccccc3Cl)nn2c1NC(=O)c1ccccn1 [Compound 346]"
  Emax: "< 350%"
- Compound: "Cc1ccncc1NC(=O)c1cnn2ccc(-c3ccccc3OC(F)(F)F)nc12 [Compound 610]"
  Emax: "< 350%"

----------
Biological target: SIRT1 (Homo sapiens)
Assay: TAMRA based mass spectrometry assay of SIRT1 activity
Type: biochemical
Settings: TAMRA peptide substrate; percent maximum fold activation; read-out: TAMRA % Fold Act

- Chem Smiles: "Cc1cc(C)nc(NC(=O)c2cnc3ccc(N4CCC(F)(F)C4)nn23)c1"
  Emax: "< 350%"
- Chem Smiles: "Cc1cc2ncc(NC(=O)c3cccc(N4CCOCC4)n3)n2nc1-c1ccccc1C(F)(F)F"
  Emax: "≥ 350%"
- Chem Smiles: "Cc1nn2ccc(-c3ccccc3C(F)(F)F)nc2c1NC(=O)c1cccc(N2CCOCC2)n1"
  Emax: "≥ 350%"
- Chem Smiles: "COc1cccc(C(=O)Nc2cnn3ccc(-c4ccccc4C(F)(F)F)nc23)n1"
  Emax: "≥ 350%"
- Chem Smiles: "COc1nccnc1NC(=O)c1cnc2c(C)cc(-c3ccccc3C(F)(F)F)nn12"
  Emax: "< 350%"
- Chem Smiles: "O=C(Nc1cnn2ccc(-c3ccccc3OC(F)(F)F)nc12)c1ccncn1"
  Emax: "≥ 350%"

----------
Target: SIRT1 (Homo sapiens)
Assay: TAMRA based mass spectrometry assay of SIRT1 activity
Format: biochemical
Details: concentration of test compound giving 150% activation of SIRT1; TAMRA peptide substrate

- Chem Smiles: "O=C(Nc1cccc(CN2CCOCC2)n1)c1cnc2ccc(-c3cccc(F)c3Cl)nn12"
  TAMRA EC1.5 (μM): "B (EC1.5 1-25 μM)"
- Chem Smiles: "O=C(Nc1cnc2ccc(-c3ccccc3C(F)(F)F)nn12)c1ccc(CN2CCOCC2)nc1"
  TAMRA EC1.5 (μM): "B (EC1.5 1-25 μM)"
- Chem Smiles: "O=C(Nc1ccnc(N2CCOCC2)c1)c1cnc2ccc(-c3ccccc3C(F)(F)F)nn12"
  TAMRA EC1.5 (μM): "B (EC1.5 1-25 μM)"

----------
Target: SIRT1 (Homo sapiens)
Assay: TAMRA based mass spectrometry assay of SIRT1 activity
Type: biochemical
Settings: TAMRA peptide substrate; percent maximum fold activation; read-out: TAMRA % Fold Act
Parameter Emax: see the listing below.

- Chem Smiles: "Cc1csc(NC(=O)c2cnn3ccc(-c4ccccc4C(F)(F)F)nc23)n1"
  Measured Target: "SIRT1 (Homo sapiens)"
  Emax: "≥ 350%"
- Chem Smiles: "Cc1cc2ncc(NC(=O)c3ccccn3)n2nc1-c1ccccc1C(F)(F)F"
  Measured Target: "SIRT1 (Homo sapiens)"
  Emax: "≥ 350%"
- Chem Smiles: "Cc1nn2ccc(-c3ccccc3C(F)(F)F)nc2c1NC(=O)c1cccc(O)n1"
  Measured Target: "SIRT1 (Homo sapiens)"
  Emax: "< 350%"
- Chem Smiles: "COc1nccc(NC(=O)c2cnc3ccc(-c4ccccc4OC(F)(F)F)nn23)n1"
  Measured Target: "SIRT1 (Homo sapiens)"
  Emax: "≥ 350%"
- Chem Smiles: "Cc1nc2ccc(-c3ccccc3OC(F)(F)F)nn2c1C(=O)Nc1ccncn1"
  Measured Target: "SIRT1 (Homo sapiens)"
  Emax: "≥ 350%"
- Chem Smiles: "Cc1nc2c(C)cc(-c3ccccc3C(F)(F)F)nn2c1NC(=O)c1cccc(O)n1"
  Measured Target: "SIRT1 (Homo sapiens)"
  Emax: "< 350%"
- Chem Smiles: "COc1nccc(NC(=O)c2c(C)nc3c(C)cc(-c4ccccc4C(F)(F)F)nn23)n1"
  Measured Target: "SIRT1 (Homo sapiens)"
  Emax: "≥ 350%"
- Chem Smiles: "Cc1nc2c(C)cc(-c3ccccc3OC(F)(F)F)nn2c1C(=O)Nc1cccnn1"
  Measured Target: "SIRT1 (Homo sapiens)"
  Emax: "≥ 350%"
- Chem Smiles: "Cc1nn2ccc(-c3ccccc3C(F)(F)F)nc2c1NC(=O)c1cccnc1"
  Measured Target: "SIRT1 (Homo sapiens)"
  Emax: "< 350%"
- Chem Smiles: "O=C(Nc1cnn2ccc(-c3ccccc3C(F)(F)F)nc12)c1nccs1"
  Measured Target: "SIRT1 (Homo sapiens)"
  Emax: "≥ 350%"
- Chem Smiles: "COc1cccc(C(=O)Nc2c(C)nc3c(C)cc(-c4ccccc4C(F)(F)F)nn23)n1"
  Measured Target: "SIRT1 (Homo sapiens)"
  Emax: "≥ 350%"
- Chem Smiles: "Cc1cc(NC(=O)c2cnc3ccc(-c4ccccc4OC(F)(F)F)nn23)cc(C)n1"
  Measured Target: "SIRT1 (Homo sapiens)"
  Emax: "≥ 350%"
- Chem Smiles: "O=C(Nc1ncn2ccc(-c3ccccc3C(F)(F)F)nc12)c1ccncn1"
  Measured Target: "SIRT1 (Homo sapiens)"
  Emax: "< 350%"
- Chem Smiles: "O=C(Nc1ccccn1)c1cnn2ccc(-c3ccccc3OC(F)(F)F)nc12"
  Measured Target: "SIRT1 (Homo sapiens)"
  Emax: "≥ 350%"
- Chem Smiles: "Cc1nc2ccc(-c3ccccc3C(F)(F)F)nn2c1C(=O)Nc1ccncn1"
  Measured Target: "SIRT1 (Homo sapiens)"
  Emax: "≥ 350%"
- Chem Smiles: "Cc1nn2ccc(-c3ccccc3C(F)(F)F)nc2c1C(=O)Nc1ccccn1"
  Measured Target: "SIRT1 (Homo sapiens)"
  Emax: "≥ 350%"
- Chem Smiles: "Cc1cc2ncc(NC(=O)c3cscn3)n2nc1-c1ccccc1C(F)(F)F"
  Measured Target: "SIRT1 (Homo sapiens)"
  Emax: "≥ 350%"
- Chem Smiles: "Cc1cnc(C(=O)Nc2cnn3ccc(-c4ccccc4C(F)(F)F)nc23)s1"
  Measured Target: "SIRT1 (Homo sapiens)"
  Emax: "≥ 350%"
- Chem Smiles: "Cc1cc(-c2ccccc2C(F)(F)F)nn2c(NC(=O)c3ccccn3)cnc12"
  Measured Target: "SIRT1 (Homo sapiens)"
  Emax: "≥ 350%"

Origin of values: patent US9957271B2
